system: CW2 cell line; assay: Growth inhibition, CyQUANT Direct Cell Proliferation Assay, CW2; type: cell-based; details: Homo sapiens, CW-2; CW2, 120 to 168 hours; read-out: CW2 GI50
PROPERTY_NAME: GI50

Please review the following examples before continuing.
COMPOUND	GI50
N#Cc1cccc2c1CCN2C(=O)Nc1ccc2c(c1)CN(C1CCC(=O)NC1=O)C2=O (centres unmarked) [Compound 148]	0.1 to 1 µM
O=C1CCC(N2Cc3cc(NC(=O)N4CCc5cc(C6CC6)ccc54)ccc3C2=O)C(=O)N1 (centres unmarked) [Compound 348]	< 0.1 µM
O=C1CCC(N2Cc3cc(NC(=O)N4CCc5ccccc54)ccc3C2=O)C(=O)N1 (centres unmarked) [Compound 103]	0.1 to 1 µM
C[C@@H]1Cc2ccccc2N1C(=O)Nc1ccc2c(c1)CN(C1CCC(=O)NC1=O)C2=O (some centres unmarked) [Compound 102]	< 0.1 µM
O=C1CCC(N2Cc3cc(NC(=O)N4CC5(CCOCC5)c5ccccc54)ccc3C2=O)C(=O)N1 (centres unmarked) [Compound 189]	< 0.1 µM
COC[C@H]1CN(C(=O)Nc2ccc3c(c2)CN(C2CCC(=O)NC2=O)C3=O)c2cccc(C(F)(F)F)c21 (some centres unmarked) [Compound 329]	0.1 to 1 µM

Quick check: GI50 of O=C1CCC(N2Cc3cc(NC(=O)N4Cc5ccccc5C4)ccc3C2=O)C(=O)N1 (centres unmarked) [Compound 106] ?
0.1 to 1 µM

Quick check: GI50 of COCc1cccc2c1CCN2C(=O)Nc1ccc2c(c1)CN(C1CCC(=O)NC1=O)C2=O (centres unmarked) [Compound 341] ?
0.1 to 1 µM

====

system: LS180 cell line; assay: Growth inhibition, CyQUANT Direct Cell Proliferation Assay, LS180; assay type: cell-based; details: Homo sapiens; LS180, 120 to 168 hours; read-out: LS180 GI50
PROPERTY_NAME: GI50

COMPOUND	GI50
COC[C@@H]1Cc2c(C3CC3)cccc2N1C(=O)Nc1ccc2c(c1)CN(C1CCC(=O)NC1=O)C2=O (some centres unmarked)	> 1000 nM
O=C1CCC(N2Cc3cc(NC(=O)N4CCc5c(C6CC6)cccc54)ccc3C2=O)C(=O)N1 (centres unmarked)	100 to 1000 nM
C[C@H]1CN(C(=O)Nc2ccc3c(c2)CN(C2CCC(=O)NC2=O)C3=O)c2ccccc21 (some centres unmarked)	100 to 1000 nM
O=C1CCC(N2Cc3cc(NC(=O)N4CCc5c4cccc5-n4cccn4)ccc3C2=O)C(=O)N1 (centres unmarked)	100 to 1000 nM

From here, focus on the item given below.
// returns reported GI50 for input COC[C@@H]1Cc2ccccc2N1C(=O)Nc1ccc2c(c1)CN(C1CCC(=O)NC1=O)C2=O (stereo in doubt) [Compound 337]
100 to 1000 nM

====

assay: Oral pharmacokinetics in male BALB/c mice; type: in vivo; details: mouse, PO 10 mg/kg, plasma, mean ± SD
The reader will find reported half-life values listed item by item below.

COMPOUND	VALUE_OBSERVED
COC[C@@H]1Cc2ccccc2N1C(=O)Nc1ccc2c(c1)CN(C1CCC(=O)NC1=O)C2=O (some centres unmarked) [Compound 288]	2.71 h

Please look up its half-life: COCC1c2ccc(C3CC3)cc2CN1C(=O)Nc1ccc2c(c1)CN(C1CCC(=O)NC1=O)C2=O (centres unmarked) [Compound 335]
1.08 h
